biological target: UniProt P49841; experiment: GSK3β in vitro enzymatic assay (Kinase-Glo Max luminescence); details: recombinant human GSK3, 10 μM ATP; approximate values; read-out: Potency GSK3beta
Sequence (P49841 whole entry): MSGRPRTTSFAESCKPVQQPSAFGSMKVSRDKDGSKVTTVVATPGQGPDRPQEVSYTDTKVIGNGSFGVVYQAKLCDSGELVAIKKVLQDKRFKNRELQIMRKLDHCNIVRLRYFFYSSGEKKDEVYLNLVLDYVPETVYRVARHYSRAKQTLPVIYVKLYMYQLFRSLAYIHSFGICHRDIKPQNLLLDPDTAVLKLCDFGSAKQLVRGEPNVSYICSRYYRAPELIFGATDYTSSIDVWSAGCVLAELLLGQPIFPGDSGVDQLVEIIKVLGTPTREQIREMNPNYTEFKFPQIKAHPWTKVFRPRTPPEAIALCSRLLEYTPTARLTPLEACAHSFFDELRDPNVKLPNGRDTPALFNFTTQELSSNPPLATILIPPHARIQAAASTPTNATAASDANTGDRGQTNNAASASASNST
Task for the reader: assign each of the following compounds its reported IC50.
Could you give me the number in µM? Just the number is fine.

Sample CCCn1cc(C(=O)O)c(=O)c2c(N)c(F)c(NCCN[C@@H]3C[C@H]3c3ccccc3)cc21 (relative stereo) — what was its IC50?
0.157

Now give it for CCn1cc(C(=O)O)c(=O)c2c(N)c(F)c(N[C@@H]3C[C@@H]3c3ccccc3)cc21 (relative stereo) too.
0.77

Now give it for CCn1cc(C(=O)O)c(=O)c2c(N)c(F)c(Nc3ccc([C@@H]4C[C@H]4N)cc3)cc21 (relative stereo) too.
0.504

Now give it for CCn1cc(C(=O)O)c(=O)c2c(N)c(F)c(N[C@H]3CC[C@H](N[C@@H]4C[C@H]4c4ccccc4)CC3)cc21 (relative stereo) too.
0.075

Now give it for CCn1cc(C(=O)O)c(=O)c2c(N)c(F)c(Nc3ccccc3)cc21 too.
0.068

Now give it for CCn1cc(C(=O)O)c(=O)c2c(N)c(F)c(NC3CCc4ccccc43)cc21 (stereo not drawn) too.
1.9

Now give it for CCn1cc(C(=O)O)c(=O)c2cc(F)c(NC3CCCCC3)cc21 too.
6.7

Now give it for CCn1cc(C(=O)O)c(=O)c2c(N)c(F)c(NCCCc3ccccc3)cc21 too.
0.029

Now give it for CCn1cc(C(=O)O)c(=O)c2c(N)c(F)c(NC3CCCC3)cc21 too.
0.053

Now give it for CCn1cc(C(=O)O)c(=O)c2c(N)c(F)c(NCCN[C@@H]3C[C@@]34CCc3ccccc34)cc21 (relative stereo) too.
3.38

Now give it for CCn1cc(C(=O)O)c(=O)c2c(N)c(F)c(NC3CN(c4ccccc4)C3)cc21 too.
0.052

Now give it for CCn1cc(C(=O)O)c(=O)c2c(N)c(F)c(N[C@H]3C[C@@H](c4ccccc4)C3)cc21 too.
0.268

Now give it for CCn1cc(C(=O)O)c(=O)c2c(N)c(F)c(NC3CC3)cc21 too.
0.223

Now give it for CCn1cc(C(=O)O)c(=O)c2c(N)cc(NCCCc3ccccc3)cc21 too.
1.76

Now give it for CCn1cc(C(=O)O)c(=O)c2c(N)cc(N[C@@H]3C[C@H]3c3ccccc3)cc21 (relative stereo) too.
4.43

Now give it for Cn1cc(C(=O)O)c(=O)c2c(N)c(F)c(NCCN[C@@H]3C[C@H]3c3ccccc3)cc21 (relative stereo) too.
2.17

Now give it for CCn1cc(C(=O)O)c(=O)c2c(N)c(F)c(N[C@@H]3C[C@H]3c3ccccc3)cc21 [Compound I-21] too.
0.334

Now give it for CCn1cc(C(=O)O)c(=O)c2c(N)c(F)c(NCCc3ccccc3)cc21 too.
0.231

Now give it for CCn1cc(C#N)c(=O)c2c(N)c(F)c(NCCc3ccccc3)cc21 too.
0.0019

Now give it for CCn1cc(C#N)c(=O)c2c(N)c(F)c(N[C@@H]3C[C@H]3c3ccccc3)cc21 (relative stereo) too.
0.0025

Now give it for CC(C)n1cc(C(=O)O)c(=O)c2c(N)c(F)c(NCCN[C@@H]3C[C@H]3c3ccccc3)cc21 (relative stereo) too.
0.083

Now give it for Nc1c(F)c(NCCN[C@@H]2C[C@H]2c2ccccc2)cc2c1c(=O)c(C(=O)O)cn2CCO (relative stereo) too.
1.6

Now give it for Nc1c(F)c(NCCN[C@@H]2C[C@H]2c2ccccc2)cc2c1c(=O)c(C(=O)O)cn2C1CC1 (relative stereo) too.
0.308

Now give it for CCn1cc(C(=O)O)c(=O)c2c(N)c(F)c(NC3CC(N[C@@H]4C[C@H]4c4ccccc4)C3)cc21 (relative stereo) too.
0.169

---

Test: Caco-2 cell permeability assay
Format: in vitro ADME
Conditions: human, pH 7.4; Caco-2, apical to basolateral, 10 μM, 2 hours; approximate values
Experimental: A Caco-2 cell permeability assay can be used for in vitro prediction of drug permeability and absorption, an important feature for a compound to be useful for methods described herein. The apparent permeability (Papp) of the compounds of the present disclosure were determined in Caco-2 cells to measure the rate of drug transport per surface area of the cell membrane. […]
Task for the reader: assign each of the following molecules its reported Papp A→B at 2 h, 10 μM.
Could you give me the number in ×10⁻⁶ cm/s? Just the number is fine.

Sample CCn1cc(C(=O)O)c(=O)c2c(N)c(F)c(NCc3ccccc3)cc21 — what was its Papp A→B at 2 h, 10 μM?
23

Now give it for Cn1cc(C(=O)O)c(=O)c2c(N)c(F)c(NCCN[C@@H]3C[C@H]3c3ccccc3)cc21 (relative stereo) too.
5

Now give it for CCn1cc(C(=O)O)c(=O)c2c(N)c(F)c(NCCc3ccccc3)cc21 too.
11

Now give it for CCn1cc(C(=O)O)c(=O)c2c(N)c(F)c(N3CCC(N[C@@H]4C[C@H]4c4ccccc4)CC3)cc21 (relative stereo) too.
7.9

Now give it for CCn1cc(C(=O)O)c(=O)c2c(N)c(F)c(NCCN[C@@H]3C[C@H]3c3ccccc3)cc21 (relative stereo) too.
9.1

Now give it for CCCn1cc(C(=O)O)c(=O)c2c(N)c(F)c(NCCN[C@@H]3C[C@H]3c3ccccc3)cc21 (relative stereo) too.
4.7

Now give it for CCn1cc(C(=O)O)c(=O)c2c(N)c(F)c(NC3CCOCC3)cc21 too.
11

Now give it for CCC(CC)n1cc(C(=O)O)c(=O)c2c(C)c(F)c(NC3CCCCC3)cc21 too.
3.3

Now give it for CCn1cc(C(=O)O)c(=O)c2c(N)c(F)c(N[C@@H]3C[C@@H]3c3ccccc3)cc21 (relative stereo) too.
1.1

Now give it for CCn1cc(C(=O)O)c(=O)c2c(N)c(F)c(N[C@H]3CC[C@H](N[C@@H]4C[C@H]4c4ccccc4)CC3)cc21 (relative stereo) too.
0.94

Now give it for CCn1cc(C(=O)O)c(=O)c2c(N)c(F)c(N[C@H]3C[C@@H](c4ccccc4)C3)cc21 too.
0.11

Now give it for CCn1cc(C(=O)O)c(=O)c2c(N)c(F)c(NC3CCc4ccccc43)cc21 (stereo not drawn) too.
6.3

Now give it for CCn1cc(C(=O)O)c(=O)c2c(N)c(F)c(Nc3ccccc3)cc21 too.
17

Now give it for CCn1cc(C(=O)O)c(=O)c2c(N)c(F)c(NC3CN(c4ccccc4)C3)cc21 too.
4.6

Now give it for CCn1cc(C(=O)O)c(=O)c2c(N)c(F)c(NC3CCC3)cc21 too.
21

---

Tested on: Lgr5+ cells (cochlear stem cells)
Experiment: Lgr5+ assay: expansion of Lgr5-positive cochlear cells in 3D culture
Type: cell-based, mouse
Settings: 10 days culture with EGF, bFGF, IGF1; approximate values
Text: “Stem Cell Proliferation Assay” as used herein is an assay to determine the capacity for agent(s) to induce the creation of stem cells from a starting cell population. […] The number of Lgr5^+ cells is quantified by counting the number of cells identified as Lgr5+ in an in vitro Lgr5 activity assay (i.e., an assay mearing in vitro Lgr5 activity). […] Lgr5 activity can be measured by qPCR. […] Lgr5-positive cells were quantified after 10 days (D10) in culture in multiple conditions. […]
Heads up, the class ranges for % of Lgr5+ Positive Cells are lowest: < 20%; middle: ≥ 20% and < 30%; highest: ≥ 30%

Input CCn1cc(C(=O)O)c(=O)c2c(N)c(F)c(NCc3ccccc3)cc21 ; output its category
middle

Now give it for CCn1cc(C(=O)O)c(=O)c2c(N)c(F)c(N[C@@H]3C[C@H]3c3ccccc3)cc21 (single isomer, unassigned) [Compound I-20] too.
highest

Now give it for CCn1cc(C(N)=O)c(=O)c2c(N)c(F)c(NCCN[C@H]3C[C@@H]3c3ccccc3)cc21 (relative stereo) too.
lowest

Now give it for CCn1cc(C#N)c(=O)c2c(N)c(F)c(N[C@@H]3C[C@H]3c3ccccc3)cc21 (relative stereo) too.
lowest

Now give it for CCn1cc(C(=O)O)c(=O)c2c(N)c(F)c(N[C@H]3CC[C@H](N[C@@H]4C[C@H]4c4ccccc4)CC3)cc21 (relative stereo) too.
middle

Now give it for CCn1cc(C(=O)O)c(=O)c2c(N)c(F)c(NCCCc3ccccc3)cc21 too.
lowest

Now give it for CCCn1cc(C(=O)O)c(=O)c2c(N)c(F)c(NCCN[C@@H]3C[C@H]3c3ccccc3)cc21 (relative stereo) too.
highest

Now give it for CCn1cc(C(=O)O)c(=O)c2c(N)c(F)c(NCCN[C@@H]3C[C@]34CCc3ccccc34)cc21 (relative stereo) too.
highest

Now give it for CC(C)n1cc(C(=O)O)c(=O)c2c(N)c(F)c(N[C@]3(C)C[C@@H](N[C@@H]4C[C@H]4c4ccccc4)C3)cc21 (relative stereo) too.
lowest

Now give it for CCn1cc(C(=O)O)c(=O)c2c(N)c(F)c(N[C@@H]3C[C@H]3c3ccccc3)cc21 [Compound I-21] too.
middle

Now give it for CCn1cc(C(=O)O)c(=O)c2c(N)c(F)c(NCCc3ccccc3)cc21 too.
highest

Now give it for CCn1cc(C(=O)O)c(=O)c2c(N)c(F)c(NC3CCc4ccccc43)cc21 (stereo not shown) too.
lowest

Now give it for CCn1cc(C(=O)O)c(=O)c2cc(F)c(NC3CCCCC3)cc21 too.
lowest

Now give it for CCn1cc(C(=O)O)c(=O)c2c(N)c(F)c(N[C@H]3C[C@@H]3c3ccccc3)cc21 too.
lowest

Now give it for CCn1cc(C(=O)O)c(=O)c2c(N)c(F)c(N3CCC(N[C@@H]4C[C@H]4c4ccccc4)CC3)cc21 (relative stereo) too.
lowest

Now give it for CCn1cc(C(=O)O)c(=O)c2c(N)c(F)c(NC3CCCC3)cc21 too.
lowest

Now give it for Nc1c(F)c(NCCN[C@@H]2C[C@H]2c2ccccc2)cc2c1c(=O)c(C(=O)O)cn2C1CC1 (relative stereo) too.
highest

Now give it for CCn1cc(C(=O)O)c(=O)c2c(N)c(F)c(Nc3ccccc3)cc21 too.
middle

Now give it for CCn1cc(C(=O)O)c(=O)c2c(N)c(F)c(NC3CN(c4ccccc4)C3)cc21 too.
middle

Now give it for CCn1cc(C(=O)O)c(=O)c2c(N)c(F)c(NC3CCCCC3)cc21 too.
middle

Provenance of the data: patent US20230058189A1
